Assign IC50 to each entry below.
# system.name: human BACE2 (Homo sapiens, UniProt Q9Y5Z0)
# Sequence (Q9Y5Z0 63-518): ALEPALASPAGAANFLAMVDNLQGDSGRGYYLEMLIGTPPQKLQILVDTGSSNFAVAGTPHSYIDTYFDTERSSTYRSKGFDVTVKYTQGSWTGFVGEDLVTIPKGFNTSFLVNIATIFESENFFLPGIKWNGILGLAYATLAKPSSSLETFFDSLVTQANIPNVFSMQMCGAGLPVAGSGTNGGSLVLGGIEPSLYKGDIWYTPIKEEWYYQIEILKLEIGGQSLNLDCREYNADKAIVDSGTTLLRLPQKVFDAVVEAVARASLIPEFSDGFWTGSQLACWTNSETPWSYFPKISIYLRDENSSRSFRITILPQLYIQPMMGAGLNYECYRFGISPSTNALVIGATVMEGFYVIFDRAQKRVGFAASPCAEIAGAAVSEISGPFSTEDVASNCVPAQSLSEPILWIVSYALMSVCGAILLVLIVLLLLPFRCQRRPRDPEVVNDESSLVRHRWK
# experimental.details: Fluorescent kinetic assay for human recombinant BACE 2 (WABC-6 peptide substrate)
# condition.summary: 1.5 nM enzyme, 25 μM substrate, pH 4.5, room temperature

In: Which IC50 value is on record for NC1=NC(c2cccc(-c3cccnc3F)c2)(c2cnn(CC(F)(F)F)c2)C2=NCCCN12 (stereo not shown) ?
Out: 5.12 µM

In: Which IC50 value is on record for NC1=NC(c2ccc(OC(F)(F)F)cc2)(c2cccc(-c3cncc(F)c3)c2)C2=NCCON12 (stereo not shown) ?
Out: 1.19 µM

In: Which IC50 value is on record for NC1=NC(c2ccc(OC(F)(F)F)cc2)(c2cccc(-c3cccnc3F)c2)C2=NOCCN12 (stereo not shown) ?
Out: 2.02 µM

In: Which IC50 value is on record for CCn1cc(C2(c3cccc(-c4cccnc4F)c3)N=C(N)N3CCCN=C32)cn1 (stereo not shown) ?
Out: 3.52 µM

----------
What follows is a collection of pIC50 values obtained with human BACE1 (Homo sapiens).
Sequence (P56817 46-501): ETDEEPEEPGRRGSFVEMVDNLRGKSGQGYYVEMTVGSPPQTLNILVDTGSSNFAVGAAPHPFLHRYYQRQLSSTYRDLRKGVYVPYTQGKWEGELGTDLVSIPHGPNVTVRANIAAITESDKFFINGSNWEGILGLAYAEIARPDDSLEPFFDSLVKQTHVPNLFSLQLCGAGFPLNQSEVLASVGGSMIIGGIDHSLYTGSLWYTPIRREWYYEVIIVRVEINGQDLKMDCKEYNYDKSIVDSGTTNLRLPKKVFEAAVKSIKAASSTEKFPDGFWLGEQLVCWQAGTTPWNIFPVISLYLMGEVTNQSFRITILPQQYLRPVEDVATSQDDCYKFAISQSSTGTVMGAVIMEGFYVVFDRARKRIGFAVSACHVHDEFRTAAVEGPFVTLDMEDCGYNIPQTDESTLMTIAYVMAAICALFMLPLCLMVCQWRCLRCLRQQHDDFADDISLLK
# log scale: pIC50 equals minus log10 of the concentration in mol/L

In: Which pIC50 value is on record for NC1=NC(c2ccc(OC(F)(F)F)cc2)(c2cccc(-c3cccnc3F)c2)C2=NOCCN12 (stereo not drawn) ?
Out: 7.52

In: Which pIC50 value is on record for CCc1cc(C2(c3cccc(-c4cccnc4F)c3)N=C(N)N3CCCN=C32)cc(CC)n1 (stereo not drawn) ?
Out: 8.00

In: Which pIC50 value is on record for NC1=NC(c2ccc(OC(F)(F)F)cc2)(c2cccc(-c3cncc(F)c3)c2)C2=NCCON12 (stereo not drawn) ?
Out: 7.30

----------
Assign melting point to each entry below.

In: Which melting point value is on record for NC1=NC(c2ccc(OC(F)(F)F)cc2)(c2cccc(-c3cccnc3F)c2)C2=NOCCN12 (stereo not drawn) [Example 5] ?
Out: 102 to 117 °C

In: Which melting point value is on record for NC1=NC(c2cccc(-c3cccnc3F)c2)(c2cnn(CC(F)(F)F)c2)C2=NCCCN12 (stereo not drawn) [Example 4] ?
Out: 106 to 116 °C

In: Which melting point value is on record for NC1=NC(c2ccc(OC(F)(F)F)cc2)(c2cccc(-c3cncc(F)c3)c2)C2=NCCON12 (stereo not drawn) [Example 6] ?
Out: 120 to 135 °C

In: Which melting point value is on record for CCc1cc(C2(c3cccc(-c4cccnc4F)c3)N=C(N)N3CCCN=C32)cc(CC)n1 (stereo not drawn) [Example 2] ?
Out: 174 to 176 °C

In: Which melting point value is on record for CCn1cc(C2(c3cccc(-c4cccnc4F)c3)N=C(N)N3CCCN=C32)cn1 (stereo not drawn) [Example 3] ?
Out: 91 to 115 °C

In: Which melting point value is on record for NC1=NC(c2ccncc2)(c2cccc(-c3cccnc3F)c2)C2=NCCCN12 (stereo not drawn) [Example 1] ?
Out: 125 to 131 °C
